molecular target: plasmin (Homo sapiens, UniProt P00747); assay: Plasmin-inhibiting activity, synthetic substrate PS-994; assay type: biochemical; design: purchased Sankyo (Color Test α2 -D1 Kit); conditions: Table 4; PS-994, pH 7.8, 37° C.
Sequence (P00747 581-810 limits assumed, species assumed): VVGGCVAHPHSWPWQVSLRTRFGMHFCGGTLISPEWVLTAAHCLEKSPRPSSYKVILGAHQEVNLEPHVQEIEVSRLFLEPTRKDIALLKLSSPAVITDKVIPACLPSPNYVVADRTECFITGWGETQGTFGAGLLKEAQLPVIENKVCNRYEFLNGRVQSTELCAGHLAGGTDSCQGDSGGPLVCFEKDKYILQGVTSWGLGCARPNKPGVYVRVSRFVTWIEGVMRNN
Sequence (P00747 97-580 partner limits assumed, species assumed): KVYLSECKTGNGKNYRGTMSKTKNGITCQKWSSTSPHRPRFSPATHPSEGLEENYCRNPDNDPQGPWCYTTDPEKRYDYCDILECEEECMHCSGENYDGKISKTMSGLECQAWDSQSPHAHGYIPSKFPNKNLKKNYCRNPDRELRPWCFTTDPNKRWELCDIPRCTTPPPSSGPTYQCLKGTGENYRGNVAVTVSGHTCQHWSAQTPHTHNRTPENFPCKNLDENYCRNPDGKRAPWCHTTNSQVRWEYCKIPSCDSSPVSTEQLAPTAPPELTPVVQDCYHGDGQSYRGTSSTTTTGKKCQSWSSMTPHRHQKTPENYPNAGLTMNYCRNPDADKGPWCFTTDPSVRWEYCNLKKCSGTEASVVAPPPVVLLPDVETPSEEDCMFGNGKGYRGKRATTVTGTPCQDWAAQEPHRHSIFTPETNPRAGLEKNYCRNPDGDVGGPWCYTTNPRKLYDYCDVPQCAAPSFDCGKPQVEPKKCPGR
Counter-ions that a name gives are not always drawn. Where a SMILES comes first, the peptide text is derived from it. [ ]: non-standard residue; d: D form. The star is where a group is joined. Tos = Cc1ccc(S(=O)(=O)*)cc1; Moc = COC(=O)*
Recorded IC50 for the following compounds
Numbers only; they are read as nM.

• Cc1ccc(S(=O)(=O)NCCCC[C@@H](NS(=O)(=O)c2ccc(C)cc2)C(=O)N[C@@H](Cc2ccccc2)C(=O)N[C@H](C=O)CCCCN)cc1 [Compound 5, hydrochloride] (Tos-[dK](Tos)-Phe-Lys-aldehyde) = 32
• Cc1ccc(S(=O)(=O)NCCCC[C@@H](NC(=O)OCC(C)C)C(=O)N[C@@H](Cc2ccccc2)C(=O)N[C@@H](CCCCN)C(=O)CCl)cc1 [Compound 13, hydrochloride] = 31
• COC(=O)N[C@H](CCCCNS(=O)(=O)c1ccc(C)cc1)C(=O)N[C@@H](Cc1ccccc1)C(=O)N[C@H](C=O)CCCCN [Compound 2, hydrochloride] (Moc-[dK](Tos)-Phe-Lys-aldehyde) = 7.9

Any idea what IC50 came out for CC(=O)N[C@H](CCCCNS(=O)(=O)c1ccc(C)cc1)C(=O)N[C@@H](Cc1ccccc1)C(=O)N[C@H](C=O)CCCCN [Compound 3, hydrochloride] (Ac-[dK](Tos)-Phe-Lys-aldehyde) on plasmin (Homo sapiens, UniProt P00747)? 660

---

biological target: plasmin (Homo sapiens, UniProt P00747); assay: Inhibitory activity on fibrin decomposition by plasmin (natural substrate); assay type: biochemical; parameters: Standard human serum (0.1 ml); from tissue; conditions: Table 4; concentration doubling time for complete dissolution, 25° C.
Sequence (P00747 581-810 limits assumed): as the sequence (P00747 581-810 limits assumed, species assumed) above
Sequence (P00747 97-580 partner limits assumed): as the sequence (P00747 97-580 partner limits assumed, species assumed) above
Where a name gives a salt, the structure may show the parent alone. Where a SMILES comes first, the peptide text is derived from it. [ ]: non-standard residue; d: D form. The star is where a group is joined. Tos = Cc1ccc(S(=O)(=O)*)cc1; Moc = COC(=O)*; For = O=C*
valueType: pIC50
Convention used: pIC50 is expressed as -log10 of the molar concentration.

• Cc1ccc(S(=O)(=O)NCCCC[C@@H](NC=O)C(=O)N[C@@H](Cc2ccccc2)C(=O)N[C@H](C=O)CCCCN)cc1 [Compound 4, hydrochloride] (For-[dK](Tos)-Phe-Lys-aldehyde) = 6.62

Which value of pIC50 has been reported for Cc1ccc(S(=O)(=O)NCCCC[C@@H](N)C(=O)N[C@@H](Cc2ccccc2)C(=O)N[C@H](C=O)CCCCN)cc1 [Compound 7, dihydrochloride] (H-[dK](Tos)-Phe-Lys-aldehyde) in the records? 6.57

Which value of pIC50 has been reported for Cc1ccc(S(=O)(=O)NCCCC[C@@H](NC(=O)OCC(C)C)C(=O)N[C@@H](Cc2ccccc2)C(=O)N[C@H](C=O)CCCCN)cc1 [Compound 1, hydrochloride] in the records? 6.64

Which value of pIC50 has been reported for CC(=O)N[C@H](CCCCNS(=O)(=O)c1ccc(C)cc1)C(=O)N[C@@H](Cc1ccccc1)C(=O)N[C@H](C=O)CCCCN [Compound 3, hydrochloride] (Ac-[dK](Tos)-Phe-Lys-aldehyde) in the records? 6.43

Which value of pIC50 has been reported for Cc1ccc(S(=O)(=O)NCCCC[C@@H](NS(=O)(=O)c2ccc(C)cc2)C(=O)N[C@@H](Cc2ccccc2)C(=O)N[C@H](C=O)CCCCN)cc1 [Compound 5, hydrochloride] (Tos-[dK](Tos)-Phe-Lys-aldehyde) in the records? 6.11

Which value of pIC50 has been reported for COC(=O)N[C@H](CCCCNS(=O)(=O)c1ccc(C)cc1)C(=O)N[C@@H](Cc1ccccc1)C(=O)N[C@H](C=O)CCCCN [Compound 2, hydrochloride] (Moc-[dK](Tos)-Phe-Lys-aldehyde) in the records? 6.64

Which value of pIC50 has been reported for Cc1ccc(S(=O)(=O)NCCCC[C@@H](NC(=O)OCC(C)C)C(=O)N[C@@H](Cc2ccccc2)C(=O)N[C@@H](CCCCN)C(=O)CCl)cc1 [Compound 13, hydrochloride] in the records? 6.36

---

biological target: human plasma kallikrein (Homo sapiens, UniProt P03952); construct: purchased Kabi Co., Ltd; assay: Kallikrein-inhibiting activity, synthetic substrate S-2302; assay type: biochemical; conditions: Table 3; S-2302, pH 8.0, 37° C.
Sequence (P03952 391-638 limits assumed): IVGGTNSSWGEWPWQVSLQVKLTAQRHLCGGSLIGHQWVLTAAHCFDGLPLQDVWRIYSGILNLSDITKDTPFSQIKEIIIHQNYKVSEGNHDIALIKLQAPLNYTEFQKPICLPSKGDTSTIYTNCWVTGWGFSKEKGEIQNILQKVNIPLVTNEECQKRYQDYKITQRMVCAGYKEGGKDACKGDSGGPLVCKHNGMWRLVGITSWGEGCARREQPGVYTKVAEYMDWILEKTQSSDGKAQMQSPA
Sequence (P03952 20-390 partner limits assumed): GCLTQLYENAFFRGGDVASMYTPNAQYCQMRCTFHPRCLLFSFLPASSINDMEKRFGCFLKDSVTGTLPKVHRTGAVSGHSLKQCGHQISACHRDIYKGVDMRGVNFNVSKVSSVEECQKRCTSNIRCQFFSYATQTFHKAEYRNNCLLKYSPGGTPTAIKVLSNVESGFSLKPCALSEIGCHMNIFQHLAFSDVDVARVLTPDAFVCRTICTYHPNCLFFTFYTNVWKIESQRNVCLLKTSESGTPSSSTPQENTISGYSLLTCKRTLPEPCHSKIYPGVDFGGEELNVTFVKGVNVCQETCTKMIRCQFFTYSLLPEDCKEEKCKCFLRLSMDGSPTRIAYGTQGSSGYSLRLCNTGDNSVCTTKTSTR
valueType: pIC50
Convention used: pIC50 is expressed as -log10 of the molar concentration.

Any idea what pIC50 came out for CC(=O)N[C@@H](CC(C)C)C(=O)N[C@@H](CC(C)C)C(=O)N[C@H](C=O)CCCNC(=N)N [Compound A4, AcLeuLeuArgH.1/2H2 SO4.H2 O (leupeptin), reference compound] on human plasma kallikrein (Homo sapiens, UniProt P03952)? 3.89

---

biological target: trypsin (Bos taurus); construct: purchased Worthington 3703; test: Trypsin-inhibiting activity, synthetic substrate PS-915; format: biochemical; settings: Table 4; PS-915, pH 8.0, 37° C.
Sequence (P00760 24-246): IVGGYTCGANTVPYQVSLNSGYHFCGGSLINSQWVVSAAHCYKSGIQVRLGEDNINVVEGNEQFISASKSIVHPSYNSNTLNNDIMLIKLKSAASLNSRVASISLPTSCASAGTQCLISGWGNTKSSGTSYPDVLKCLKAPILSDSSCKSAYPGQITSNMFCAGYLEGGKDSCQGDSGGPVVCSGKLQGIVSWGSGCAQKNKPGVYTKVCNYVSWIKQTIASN
Where a name gives a salt, the structure may show the parent alone. Where a SMILES comes first, the peptide text is derived from it. [ ]: non-standard residue; d: D form. The star is where a group is joined. Tos = Cc1ccc(S(=O)(=O)*)cc1
Sorting guide: entries reporting IC50 beneath 3 µM go in the satisfied pile, the rest go in the not satisfied pile.

• CC(=O)N[C@H](CCCCNS(=O)(=O)c1ccc(C)cc1)C(=O)N[C@@H](Cc1ccccc1)C(=O)N[C@H](C=O)CCCCN [Compound 3, hydrochloride] (Ac-[dK](Tos)-Phe-Lys-aldehyde) = not satisfied

Regarding Cc1ccc(S(=O)(=O)NCCCC[C@@H](NS(=O)(=O)c2ccc(C)cc2)C(=O)N[C@@H](Cc2ccccc2)C(=O)N[C@H](C=O)CCCCN)cc1 [Compound 5, hydrochloride] (Tos-[dK](Tos)-Phe-Lys-aldehyde) , kindly confirm whether its IC50 is beneath 3 µM. not satisfied

---

biological target: human plasma kallikrein (Homo sapiens); construct: purchased Kabi Co., Ltd; experiment: Kallikrein-inhibiting activity, synthetic substrate S-2302; type: biochemical; settings: Table 4; S-2302, pH 8.0, 37° C.
Counter-ions that a name gives are not always drawn. Where a SMILES comes first, the peptide text is derived from it. [ ]: non-standard residue; d: D form. The star is where a group is joined. Tos = Cc1ccc(S(=O)(=O)*)cc1; For = O=C*
Recorded IC50 for the following compounds
Numbers only; they are read as µM.

Check out these entries, answers already filled in.
• Cc1ccc(S(=O)(=O)NCCCC[C@@H](NC(=O)OCC(C)C)C(=O)N[C@@H](Cc2ccccc2)C(=O)N[C@@H](CCCCN)C(=O)CCl)cc1 [Compound 13, hydrochloride] = 0.11
• Cc1ccc(S(=O)(=O)NCCCC[C@@H](NC=O)C(=O)N[C@@H](Cc2ccccc2)C(=O)N[C@H](C=O)CCCCN)cc1 [Compound 4, hydrochloride] (For-[dK](Tos)-Phe-Lys-aldehyde) = 1

Which value of IC50 has been reported for Cc1ccc(S(=O)(=O)NCCCC[C@@H](NS(=O)(=O)c2ccc(C)cc2)C(=O)N[C@@H](Cc2ccccc2)C(=O)N[C@H](C=O)CCCCN)cc1 [Compound 5, hydrochloride] (Tos-[dK](Tos)-Phe-Lys-aldehyde) in the records? 0.54

---

biological target: trypsin (Bos taurus); construct: purchased Worthington 3703; assay: Trypsin-inhibiting activity, synthetic substrate PS-915; type: biochemical; settings: Table 4; PS-915, pH 8.0, 37° C.
Where a name gives a salt, the structure may show the parent alone. Where a SMILES comes first, the peptide text is derived from it. [ ]: non-standard residue; d: D form. The star is where a group is joined. Tos = Cc1ccc(S(=O)(=O)*)cc1; Moc = COC(=O)*; For = O=C*
Recorded IC50 for the following compounds
Numbers only; they are read as nM.

Check out these entries, answers already filled in.
- Cc1ccc(S(=O)(=O)NCCCC[C@@H](NC=O)C(=O)N[C@@H](Cc2ccccc2)C(=O)N[C@H](C=O)CCCCN)cc1 [Compound 4, hydrochloride] (For-[dK](Tos)-Phe-Lys-aldehyde): 7800
- Cc1ccc(S(=O)(=O)NCCCC[C@@H](NC(=O)OCC(C)C)C(=O)N[C@@H](Cc2ccccc2)C(=O)N[C@@H](CCCCN)C(=O)CCl)cc1 [Compound 13, hydrochloride]: 680
- Cc1ccc(S(=O)(=O)NCCCC[C@@H](N)C(=O)N[C@@H](Cc2ccccc2)C(=O)N[C@H](C=O)CCCCN)cc1 [Compound 7, dihydrochloride] (H-[dK](Tos)-Phe-Lys-aldehyde): 18000
- COC(=O)N[C@H](CCCCNS(=O)(=O)c1ccc(C)cc1)C(=O)N[C@@H](Cc1ccccc1)C(=O)N[C@H](C=O)CCCCN [Compound 2, hydrochloride] (Moc-[dK](Tos)-Phe-Lys-aldehyde): 2500

Let's switch to this compound now.
Which value of IC50 has been reported for Cc1ccc(S(=O)(=O)NCCCC[C@@H](NC(=O)OCC(C)C)C(=O)N[C@@H](Cc2ccccc2)C(=O)N[C@H](C=O)CCCCN)cc1 [Compound 1, hydrochloride] in the records? 2800
